Hey, just so you know, these numbers are from patent US20230212304A1.

ASSAYED TARGET: T1, recombinant human CTLA4-his protein (Acro biosystems, Cat#CT4-H5229) (human, UniProt P16410 37-162)
T1 construct: bought recombinant protein; not shown: his tag
T1 sequence (looked up): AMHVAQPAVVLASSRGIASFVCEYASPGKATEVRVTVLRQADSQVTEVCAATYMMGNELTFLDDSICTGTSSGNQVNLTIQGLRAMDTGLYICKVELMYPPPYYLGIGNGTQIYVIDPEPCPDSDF
RUN DESCRIPTION: BLI, Octet; antibody from cell supernatant on AHC sensor, CTLA4-his as analyte
Binarize Kd at 4 nM; below is 1 (yes), at or above is 0 (no).

BINDER | ASSIGNED LABEL
huD1D5-V10 (antibody, human IgG4 S228P, kappa, V domains shown, humanized IgG4/kappa; tested as 293F cell supernatant on Octet; also called hu CTLA4 D1D5-V10) VH: EVQLVESGGGLVKPGGSLRLSCAASGFTFSDYGMAWVRQAPGKGLEWVAFISNLAYSVYYADTETGRFTISRDNAKNSLYLQMNSLRAEDTAVYYCARSGLPYAMDYWGQGTTVTVSS VL: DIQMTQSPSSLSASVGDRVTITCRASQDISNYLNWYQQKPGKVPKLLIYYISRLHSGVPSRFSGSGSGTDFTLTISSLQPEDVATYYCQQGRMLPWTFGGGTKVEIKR | 0 (no)
huD1D5-V5 (antibody, human IgG4 S228P, kappa, V domains shown, humanized IgG4/kappa; tested as 293F cell supernatant on Octet; also called hu CTLA4 DID5-V5) VH: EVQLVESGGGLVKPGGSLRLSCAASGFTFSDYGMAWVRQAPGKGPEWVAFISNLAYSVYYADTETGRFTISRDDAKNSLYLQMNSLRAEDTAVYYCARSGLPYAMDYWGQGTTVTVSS VL: DIQMTQSPSSLSASVGDRVTITCRASQDISNYLNWYQQKPGKVPKLLIYYISRLHSGVPSRFSGSGSGTDFTLTISSLQPEDVATYFCQQGRMLPWTFGGGTKVEIKR | 1 (yes)
huD1D5-V9 (antibody, human IgG4 S228P, kappa, V domains shown, humanized IgG4/kappa; cell supernatant on Octet, purified antibody in Biacore, ELISA, FACS and the functional assay; also called hu CTLA4 D1D5-V9; huDID5-V9) VH: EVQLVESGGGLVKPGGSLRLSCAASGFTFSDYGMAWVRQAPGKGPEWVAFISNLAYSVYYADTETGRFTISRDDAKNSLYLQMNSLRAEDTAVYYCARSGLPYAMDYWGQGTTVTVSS VL: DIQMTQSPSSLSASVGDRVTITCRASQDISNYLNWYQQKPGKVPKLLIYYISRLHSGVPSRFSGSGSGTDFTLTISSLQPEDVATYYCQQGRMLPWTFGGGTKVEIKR | 0 (no)
huC1D1-V11 (antibody, human IgG4 S228P, kappa, V domains shown, humanized IgG4/kappa; tested as 293F cell supernatant on Octet; also called hu CTLA4 C1D1-V11) VH: EVQLVESGGGLVQPGRSLRLSCTASGFTFSDNWMNWVRQAPGKGLEWVGQIRNKPYNYETYYSDSVKGRFTISRDDSKSIVYLQMNSLKTEDTAVYYCTGGMDYWGQGTTVTVSS VL: DIQMTQSPSSLSASVGDRVTITCGASEIIYGALNWYQQKPGKVPKLLIYGATNLADGVPSRFSGSGSGTDFTLTISSLQPEDVATYYCQKILSPPPWTFGGGTKVEIKR | 1 (yes)
huC1D1-V4 (antibody, human IgG4 S228P, kappa, V domains shown, humanized IgG4/kappa; tested as 293F cell supernatant on Octet; also called hu CTLA4 C1D1-V4) VH: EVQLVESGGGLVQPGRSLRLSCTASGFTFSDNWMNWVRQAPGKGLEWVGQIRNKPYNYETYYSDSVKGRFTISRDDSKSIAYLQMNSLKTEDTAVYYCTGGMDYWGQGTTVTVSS VL: DIQMTQSPSSLSASVGDRVTITCGASEIIYGALNWYQQKPGKSPKLLIYGATNLADGMPSRFSGSGSGRDYTLTISSLQPEDVATYYCQKILSPPPWTFGGGTKVEIKR | 1 (yes)
huC1D1-V6 (antibody, human IgG4 S228P, kappa, V domains shown, humanized IgG4/kappa; tested as 293F cell supernatant on Octet; also called hu CTLA4 C1D1-V6) VH: EVQLVESGGGLVQPGRSLRLSCTASGFTFSDNWMNWVRQAPGKGLEWVAQIRNKPYNYETYYSDSVKGRFTISRDDSKSIAYLQMNSLKTEDTAVYYCTGGMDYWGQGTTVTVSS VL: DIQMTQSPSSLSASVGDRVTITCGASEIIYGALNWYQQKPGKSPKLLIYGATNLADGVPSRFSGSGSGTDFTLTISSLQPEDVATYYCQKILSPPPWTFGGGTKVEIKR | 1 (yes)
huD1D5-V11 (antibody, human IgG4 S228P, kappa, V domains shown, humanized IgG4/kappa; tested as 293F cell supernatant on Octet; also called hu CTLA4 D1D5-V11) VH: EVQLVESGGGLVKPGGSLRLSCAASGFTFSDYGMAWVRQAPGKGLEWVAFISNLAYSVYYADTETGRFTISRDDAKNSLYLQMNSLRAEDTAVYYCARSGLPYAMDYWGQGTTVTVSS VL: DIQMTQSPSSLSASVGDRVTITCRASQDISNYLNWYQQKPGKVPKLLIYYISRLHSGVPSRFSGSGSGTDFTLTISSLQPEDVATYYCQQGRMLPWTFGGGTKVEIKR | 0 (no)
huD1D5-V6 (antibody, human IgG4 S228P, kappa, V domains shown, humanized IgG4/kappa; tested as 293F cell supernatant on Octet; also called hu CTLA4 D1D5-V6) VH: EVQLVESGGGLVKPGGSLRLSCAASGFTFSDYGMAWVRQAPGKGLEWVAFISNLAYSVYYADTETGRFTISRDNAKNSLYLQMNSLRAEDTAVYYCARSGLPYAMDYWGQGTTVTVSS VL: DIQMTQSPSSLSASVGDRVTITCRASQDISNYLNWYQQKPGKVPKLLIYYISRLHSGVPSRFSGSGSGTDFTLTISSLQPEDVATYFCQQGRMLPWTFGGGTKVEIKR | 0 (no)
huC1D1-V8 (antibody, human IgG4 S228P, kappa, V domains shown, humanized IgG4/kappa; cell supernatant on Octet, purified antibody in Biacore, ELISA, FACS and the functional assay; also called hu CTLA4 C1D1-V8) VH: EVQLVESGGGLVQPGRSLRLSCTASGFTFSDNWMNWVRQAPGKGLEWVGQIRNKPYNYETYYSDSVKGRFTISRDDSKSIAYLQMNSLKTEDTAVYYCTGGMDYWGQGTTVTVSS VL: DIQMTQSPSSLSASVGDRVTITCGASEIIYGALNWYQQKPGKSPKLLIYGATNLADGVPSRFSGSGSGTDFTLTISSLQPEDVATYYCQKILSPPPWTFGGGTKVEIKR | 1 (yes)
huC1D1-V5 (antibody, human IgG4 S228P, kappa, V domains shown, humanized IgG4/kappa; tested as 293F cell supernatant on Octet; also called hu CTLA4 C1D1-V5) VH: EVQLVESGGGLVQPGRSLRLSCTASGFTFSDNWMNWVRQAPGKGLEWVAQIRNKPYNYETYYSDSVKGRFTISRDDSKSIVYLQMNSLKTEDTAVYYCTGGMDYWGQGTTVTVSS VL: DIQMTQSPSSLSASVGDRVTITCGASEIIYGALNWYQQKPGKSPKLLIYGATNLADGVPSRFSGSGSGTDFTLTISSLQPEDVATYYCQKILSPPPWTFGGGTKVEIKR | 1 (yes)
